Tested on: Escherichia coli TOP10
experiment.notes: shrunken log2 fold change of peptide-encoding DNA abundance (4.5 h post-induction vs induction); higher = less antimicrobial activity (less host growth inhibition)
run.parameters: time post-induction: 4.5 h; library: site-saturation at positions 5, 18, 19, 20
This listing pairs sequences with measured shrunken log2 fold change.

Fill in the blank: the reported shrunken log2 fold change of RRIRCRPPRLPRPRPRPPRRPRP is ____.
0.909

Same read-out for RRIRWRPPRLPRPRPRPKEAPRP ?
0.111

Likewise for RRIRNRPPRLPRPRPRPRPKPRP ?
0.719

Can you check RRIRNRPPRLPRPRPRPLAMPRP next?
-0.21

Continue with RRIRARPPRLPRPRPRPVASPRP
0.595

Now the same for RRIRARPPRLPRPRPRPWPSPRP
-0.0645

Next: RRIRERPPRLPRPRPRPILYPRP
-0.615

Then RRIRFRPPRLPRPRPRPYRMPRP ?
-0.571

Would you mind doing RRIRNRPPRLPRPRPRPFAMPRP as well?
-0.177

Item: RRIRQRPPRLPRPRPRPGSNPRP
0.127

Others:
Fill blank: measured shrunken log2 fold change of the sequence RRIRLRPPRLPRPRPRPLYIPRP is ____.
-0.932

Item: RRIRNRPPRLPRPRPRPEDIPRP
-0.194

And for RRIRARPPRLPRPRPRPCGYPRP ?
0.0562

Next: RRIRVRPPRLPRPRPRPSYFPRP
-0.131

Okay, and RRIRARPPRLPRPRPRPYSIPRP ?
-0.374

====

System: Escherichia coli TOP10
experiment.notes: shrunken log2 fold change of peptide-encoding DNA abundance (4.5 h post-induction vs induction); higher = less antimicrobial activity (less host growth inhibition)
run.parameters: time post-induction: 4.5 h; library: site-saturation at positions 5, 18, 19, 20
Property: shrunken log2 fold change; scope: individual sequences
Just the number, please, no unit attached.

Give its shrunken log2 fold change value. Item: RRIRCRPPRLPRPRPRPAWRPRP
0.575

Same thing, different sequence: RRIRARPPRLPRPRPRPNCWPRP
0.563

Follow-up item: RRIRHRPPRLPRPRPRPPDYPRP
4.26

Quick one: RRIRNRPPRLPRPRPRPLWMPRP
-0.587

// next record RRIRHRPPRLPRPRPRPGFFPRP
0.0196

Okay, and RRIRYRPPRLPRPRPRPYRHPRP ?
-1.4

Continuing:
Please give the measured shrunken log2 fold change for this sequence: RRIRARPPRLPRPRPRPDQCPRP
0.0213

Similarly, RRIRERPPRLPRPRPRPYLFPRP ?
-0.137

====

Test system: Escherichia coli TOP10;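 also: peptides expressed intracellularly from a pBAD plasmid library in pooled LB shake-flask culture, induced with 0.3% L-arabinose, DNA abundance read by NGS, three biological replicates, DESeq2 with apeglm shrinkage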
experiment.notes: shrunken log2 fold change of peptide-encoding DNA abundance (4.5 h post-induction vs induction); higher = less antimicrobial activity (less host growth inhibition)
run.parameters: time post-induction: 4.5 h; library: site-saturation at positions 5, 18, 19, 20
measurement.label: shrunken log2 fold change

Known shrunken log2 fold change results, listed for orientation:
Which shrunken log2 fold change is reported with Escherichia coli TOP10 for this entry: RRIRGRPPRLPRPRPRPLNDPRP ?
0.388

Further, for RRIRSRPPRLPRPRPRPERCPRP ?
0.0123

Now the sequence RRIRDRPPRLPRPRPRPGSGPRP
0.499

Quick one: RRIRDRPPRLPRPRPRPGNVPRP
-0.0882

Same again, this time with RRIRYRPPRLPRPRPRPVISPRP
0.0433

More entries:
For Escherichia coli TOP10, provide shrunken log2 fold change of RRIRARPPRLPRPRPRPYGNPRP please.
-0.0109
